yeast fitness for assorted variants
B1: tRNA (parent)
chain: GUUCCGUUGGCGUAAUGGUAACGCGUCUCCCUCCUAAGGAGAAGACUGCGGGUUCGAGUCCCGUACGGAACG

# Variants of: B1
# experiment description: yeast fitness relative to wild type (ratio to wild type); higher = fitter; tRNA-Arg(CCU), competitive growth, 37 C, YPD
Fewer inactive variants are shown than the library holds.
Note: the reply should be a number with no unit written.

Solved entries (count: 5):
GUACCGUUGGCGUAAUGGUAACGCGUGGCCCUCCUUAGGAGAAGUCUGGGGGUUCGAGUCCCGUACGGAACG [U3A C27G U28G A36U A45U C49G] = 0.662
GCUCCGUUGGCGUAAUGGUCACGCGUUUCCCUCCUAAGGAGAAGACUGCGGGUUCGAGUCCCGUACGGAACG [U2C A20C C27U] = 0.838
GUUCCGUUGGUGUAAUGGUAACGCGUCUCCCUCCUAAGGAGAAGACUGCGGGUUCGAGUCCCGUACGGCACG [C11U A69C] = 0.905
GUUCCGUUGGCGCAAUGGUAACACGUCUCCCUCCUAAGGAGAAGACUGCGGGUUCGAGUCCCGUACGGAACG [U13C G23A] = 0.759
GUUCCGUUGGCGUAAUGGUAACGCGUCUCCCUCCUAAGGAGAAGUCUGCGGGUUCGGGCCCCGUACGGAACG [A45U A57G U59C] = 0.597

input: Provide one value: measured yeast fitness of GUUCCGUUGGUGUAAUGGAAACGCGUCUGCCUCCUAAGGAGAAGACUGCGGGUUCGAGUCCCGUACGGAACG [C11U U19A C29G]
output: 0.704

input: Provide one value: measured yeast fitness of GUUCCGUUGGCGUAAUGGUAACGCGUCUCCCUCCUAAGGAGAAGACUAUGGGUUCGAGUCCCCUACGGAACG [G48A C49U G63C]
output: 0.633

input: Provide one value: measured yeast fitness of GUUCCGUUGACGUAAUAGUAACGCGUCUCCCUCCUAAGGAGAAGACUGCGGGUUCGAGUCCCGUACGGAACG [G10A G17A]
output: 0.556
